Ref: ChEMBL document CHEMBL1154850

# Tested on: Leishmania donovani
# assay.summary: Antileishmanial activity against Leishmania donovani LD-1S/MHOM/SD/00-1S amastigotes after 72 hrs by PicoGreen fluorescence assay
# Format: functional, organism-based
Square brackets hold non-standard residues; d marks the D form. Peptide text beside a SMILES is read from it. * marks the point of attachment. NMeF = CN[C@@H](Cc1ccccc1)C(=O)O; NMeV = CN[C@H](C(=O)O)C(C)C; X1 = C#CCCCC[C@H](C)C(=O)*; X2 = C#CCCC/C=C(\C)C(=O)*
quantity.measured: IC50 (µM)
Lab book: enter the figure in µM, no units written.

Example compounds with recorded IC50:
{"compound": "C#CCCCC[C@H](C)C(=O)N(C)[C@H](C(=O)N(C)[C@H](C(=O)N(C)[C@H](C(=O)N(C)[C@@H](Cc1ccccc1)C(N)=O)C(C)C)C(C)C)C(C)C [DRAGONAMIDE A] (X1-[NMeV][NMeV][NMeV][NMeF]-NH2)", "reported.value": 6.5}
{"compound": "C/C(=C\\C=C\\C[C@H](C)C(Cl)(Cl)Cl)C(=O)N[C@H](c1nccs1)C(C)C [HERBAMIDE B]", "reported.value": 5.9}
{"compound": "C#CCCC/C=C(\\C)C(=O)N(C)[C@H](C(=O)N(C)[C@H](C(=O)N(C)[C@H](C(=O)N(C)[C@@H](Cc1ccccc1)C(N)=O)C(C)C)C(C)C)C(C)C [DRAGONAMIDE E] (X2-[NMeV][NMeV][NMeV][NMeF]-NH2)", "reported.value": 5.1}

Lab note: next compound to report on.
Task: Hello, please tell me recorded IC50 for this one: C[C@@H]1[C@H](O)[C@@H](C)/C=C/C=C/C=C/C=C/C=C/C=C/C=C/[C@H](O[C@@H]2O[C@H](C)[C@@H](O)[C@H](N)[C@@H]2O)C[C@@H]2O[C@](O)(C[C@@H](O)C[C@@H](O)[C@H](O)CC[C@@H](O)C[C@@H](O)CC(=O)O[C@H]1C)C[C@H](O)[C@H]2C(=O)O
Result: 0.1
